Reference source: ChEMBL document CHEMBL5046241

Collected pEC50 values appear next to each entry.
Molecular target: 5-hydroxytryptamine receptor 1A (Homo sapiens, UniProt P08908)
Sequence (P08908 whole entry): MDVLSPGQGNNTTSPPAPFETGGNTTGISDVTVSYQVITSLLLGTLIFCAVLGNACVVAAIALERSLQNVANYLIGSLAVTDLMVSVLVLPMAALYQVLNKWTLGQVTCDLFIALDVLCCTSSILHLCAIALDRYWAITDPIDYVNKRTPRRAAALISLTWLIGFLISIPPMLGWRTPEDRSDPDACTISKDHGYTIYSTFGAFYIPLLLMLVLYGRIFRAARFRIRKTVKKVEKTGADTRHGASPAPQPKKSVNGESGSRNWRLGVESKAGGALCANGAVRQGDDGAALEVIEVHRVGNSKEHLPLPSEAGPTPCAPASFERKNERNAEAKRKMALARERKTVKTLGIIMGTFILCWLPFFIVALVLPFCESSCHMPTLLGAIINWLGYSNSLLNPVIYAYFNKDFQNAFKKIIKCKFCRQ
pEC50: −log10 of the molar value.

`N#Cc1ccc2[nH]cc(CN3CCN(c4ccc(C(=O)CCC5CCN(Cc6ccoc6)CC5)cc4)CC3)c2c1` tested on 5-hydroxytryptamine receptor 1A (Homo sapiens, UniProt P08908) gave pEC50: < 6.00

`O=C(CCC1CCN(Cc2ccccc2)CC1)c1ccc(N2CCN(CCCCc3c[nH]c4cc(Cl)c(Cl)cc34)CC2)cc1` tested on 5-hydroxytryptamine receptor 1A (Homo sapiens, UniProt P08908) gave pEC50: < 6.00

`N#Cc1ccc2[nH]cc(CN3CCN(c4ccc(C(=O)CCC5CCN(Cc6cc[nH]c6)CC5)cc4)CC3)c2c1` tested on 5-hydroxytryptamine receptor 1A (Homo sapiens, UniProt P08908) gave pEC50: < 6.00

`N#Cc1ccc2[nH]cc(CCCCN3CCN(c4ccc(C(=O)CCC5CCN(Cc6cccnc6)CC5)cc4)CC3)c2c1` tested on 5-hydroxytryptamine receptor 1A (Homo sapiens, UniProt P08908) gave pEC50: 7.66

N#Cc1ccc2[nH]cc(CCN3CCN(c4ccc5c(c4)CC(CC4CCN(Cc6ccccc6)CC4)C5=O)CC3)c2c1 (stereo not drawn) tested on 5-hydroxytryptamine receptor 1A (Homo sapiens, UniProt P08908) gave pEC50: < 6.00

`N#Cc1ccc2[nH]cc(CCN3CCN(c4ccc(C(=O)CCC5CCN(Cc6ccsc6)CC5)cc4)CC3)c2c1` tested on 5-hydroxytryptamine receptor 1A (Homo sapiens, UniProt P08908) gave pEC50: < 6.00

`Cc1ccc2[nH]cc(CCCCN3CCN(c4ccc(C(=O)CCC5CCN(Cc6ccccc6)CC5)cc4)CC3)c2c1` tested on 5-hydroxytryptamine receptor 1A (Homo sapiens, UniProt P08908) gave pEC50: 6.55

`C=CCN1CCC(CCC(=O)c2ccc(N3CCN(CCCCc4c[nH]c5ccc(C#N)cc45)CC3)cc2)CC1` tested on 5-hydroxytryptamine receptor 1A (Homo sapiens, UniProt P08908) gave pEC50: 8.07

* * *

Collected pIC50 values appear next to each entry.
Biological target: Acetylcholinesterase (Mus musculus)
Sequence (P21836 whole entry): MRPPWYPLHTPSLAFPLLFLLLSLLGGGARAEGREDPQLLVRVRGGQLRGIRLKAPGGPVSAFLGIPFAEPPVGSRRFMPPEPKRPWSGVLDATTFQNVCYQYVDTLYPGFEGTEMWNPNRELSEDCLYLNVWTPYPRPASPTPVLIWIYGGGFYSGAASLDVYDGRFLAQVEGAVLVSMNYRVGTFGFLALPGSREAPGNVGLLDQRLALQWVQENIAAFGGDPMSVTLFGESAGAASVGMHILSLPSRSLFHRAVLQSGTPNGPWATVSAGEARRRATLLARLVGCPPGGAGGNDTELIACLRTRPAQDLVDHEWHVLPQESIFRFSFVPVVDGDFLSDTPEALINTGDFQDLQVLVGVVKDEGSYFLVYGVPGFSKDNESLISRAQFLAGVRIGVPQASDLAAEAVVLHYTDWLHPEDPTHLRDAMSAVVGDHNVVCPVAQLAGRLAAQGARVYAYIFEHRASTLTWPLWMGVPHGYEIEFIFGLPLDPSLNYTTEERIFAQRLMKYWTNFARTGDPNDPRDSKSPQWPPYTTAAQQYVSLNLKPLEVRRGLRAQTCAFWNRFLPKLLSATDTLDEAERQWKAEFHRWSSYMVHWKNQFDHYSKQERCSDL
Please treat pIC50 as minus the base-10 logarithm of the molar concentration.

# count of solved cases: 5
// pIC50 value for `N#Cc1ccc2[nH]cc(CCCCN3CCN(c4ccc(C(=O)CCC5CCN(Cc6cccc(C(F)(F)F)c6)CC5)cc4)CC3)c2c1` : 6.53

// pIC50 value for `N#Cc1ccc2[nH]cc(CN3CCN(c4ccc(C(=O)CCC5CCN(Cc6ccccc6)CC5)cc4)CC3)c2c1` : 8.19

// pIC50 value for `N#Cc1ccc2[nH]cc(CCCN3CCN(c4ccc(C(=O)CCC5CCN(Cc6ccccc6)CC5)cc4)CC3)c2c1` : 8.66

// pIC50 value for `N#Cc1ccc2[nH]cc(CCCCN3CCN(c4ccc(C(=O)CCC5CCN(Cc6cccc(Br)c6)CC5)cc4)CC3)c2c1` : 7.04

// pIC50 value for `N#Cc1ccc2[nH]cc(CCCCN3CCN(c4ccc(C(=O)CCC5CCN(Cc6ccccc6F)CC5)cc4)CC3)c2c1` : 7.92

Here is another compound to look at.
// pIC50 value for `N#Cc1ccc2[nH]cc(CCCCN3CCN(c4ccc(C(=O)CCC5CCN(Cc6ccsc6)CC5)cc4)CC3)c2c1` : 8.52
